These data points were gathered from the supplement of paper PMC9170038.

- Tested on: MS2 coat protein
- RUN DESCRIPTION: apparent KD of MS2 coat protein; designed switch direction (-1 OFF switch, 1 ON switch): 1; higher = weaker reporter binding
- CONDITION: input ligand: none

SEQUENCE DATA | apparent KD of MS2 coat protein (nM)
GGUAAGAAUUAAGGAUAUCGAGUACAUAUGUUUAACAUGAGGAUCACCCAUGUGGGUUGCGGUAUCGAGAAGGUAAAAUAAAAG [Mat - same State NG 2 - JL mod - D65] (Eterna round: R96, puzzle: Same State NG 2) | 36.2
CUUUUUAAUGCAGGAUAUGAUCAACAUGAGGAUCACCCAUGUGGCGUUGUGAGUAGGGAGAGUGAUCAGAAGGGCAUCUCCUCG [SS-NG2-LRO08] (Eterna round: R96, puzzle: Same State NG 2) | 62.4
GUGGUCAGACAUGAGGAUCACCCAUGUGGAAUAAAUAACGUACAGGAUAUUCAAUAUAGGAUAUAGAAGAAGGGUAGAUUGGUG (Eterna round: R96, puzzle: Same State NG 3) | 195
